test-conditions: in ethyl acetate, 303.2 K
observed-property: solubility (mole fraction)

Look at this compound and give its reported solubility (mole fraction). COc1cc2nccc(Oc3ccc(NC(=O)C4(C(=O)Nc5ccc(F)cc5)CC4)cc3)c2cc1OC.O=C(O)C[C@H](O)C(=O)O
0.000135

====

test-conditions: in methanol, 298.2 K
observed-property: solubility (mole fraction)
// response body must contain only the number

Look at this molecule and give its reported solubility (mole fraction). COc1cc2nccc(Oc3ccc(NC(=O)C4(C(=O)Nc5ccc(F)cc5)CC4)cc3)c2cc1OC.O=C(O)C[C@H](O)C(=O)O
0.000169

====

test-conditions: in n-butanol, 298.2 K
observed-property: solubility (mole fraction)
// response body must contain only the number

Look at this compound and give its reported solubility (mole fraction). COc1cc2nccc(Oc3ccc(NC(=O)C4(C(=O)Nc5ccc(F)cc5)CC4)cc3)c2cc1OC.O=C(O)C[C@H](O)C(=O)O
0.000675

====

test-conditions: in water, 313.2 K
observed-property: solubility (mole fraction)
// response body must contain only the number

Look at this molecule and give its reported solubility (mole fraction). COc1cc2nccc(Oc3ccc(NC(=O)C4(C(=O)Nc5ccc(F)cc5)CC4)cc3)c2cc1OC.O=C(O)C[C@H](O)C(=O)O
6.52e-07

====

test-conditions: in PEG-400, 313.2 K
observed-property: solubility (mole fraction)
// response body must contain only the number

Look at this compound and give its reported solubility (mole fraction). COc1cc2nccc(Oc3ccc(NC(=O)C4(C(=O)Nc5ccc(F)cc5)CC4)cc3)c2cc1OC.O=C(O)C[C@H](O)C(=O)O
0.0105

====

test-conditions: in sec-butanol, 313.2 K
observed-property: solubility (mole fraction)
// response body must contain only the number

Look at this compound and give its reported solubility (mole fraction). COc1cc2nccc(Oc3ccc(NC(=O)C4(C(=O)Nc5ccc(F)cc5)CC4)cc3)c2cc1OC.O=C(O)C[C@H](O)C(=O)O
0.00173

====

test-conditions: in isopropanol, 313.2 K
observed-property: solubility (mole fraction)

Look at this compound and give its reported solubility (mole fraction). COc1cc2nccc(Oc3ccc(NC(=O)C4(C(=O)Nc5ccc(F)cc5)CC4)cc3)c2cc1OC.O=C(O)C[C@H](O)C(=O)O
0.0013

====

test-conditions: in n-butanol, 308.2 K
observed-property: solubility (mole fraction)
// response body must contain only the number

Look at this compound and give its reported solubility (mole fraction). COc1cc2nccc(Oc3ccc(NC(=O)C4(C(=O)Nc5ccc(F)cc5)CC4)cc3)c2cc1OC.O=C(O)C[C@H](O)C(=O)O
0.00128

====

test-conditions: in PEG-400, 318.2 K
observed-property: solubility (mole fraction)
// response body must contain only the number

Look at this molecule and give its reported solubility (mole fraction). COc1cc2nccc(Oc3ccc(NC(=O)C4(C(=O)Nc5ccc(F)cc5)CC4)cc3)c2cc1OC.O=C(O)C[C@H](O)C(=O)O
0.0142

====

test-conditions: in propylene glycol, 298.2 K
observed-property: solubility (mole fraction)

Look at this molecule and give its reported solubility (mole fraction). COc1cc2nccc(Oc3ccc(NC(=O)C4(C(=O)Nc5ccc(F)cc5)CC4)cc3)c2cc1OC.O=C(O)C[C@H](O)C(=O)O
0.000715

====

test-conditions: in ethyl acetate, 308.2 K
observed-property: solubility (mole fraction)
// response body must contain only the number

Look at this molecule and give its reported solubility (mole fraction). COc1cc2nccc(Oc3ccc(NC(=O)C4(C(=O)Nc5ccc(F)cc5)CC4)cc3)c2cc1OC.O=C(O)C[C@H](O)C(=O)O
0.000187
